Target: MDM2D.rerio SWIB domain (Danio rerio)
Construct: NusA-TEV-His6-PreScission (N, cleaved yes); made in house; host or cells: Escherichia coli BL21 (DE3)
Assay: Fluorescence polarization displacement assay
Format: binding
Conditions: FP displacement; printed in nM (text, Fig. S4A); read-out: KD
Readout Name: Kd
Put down the number, then write its unit next to it.

Sample GPMGMAQNDSQEFAELWEKNLISIQPPGGGSCWDIINDEEYLPGSFDPNFFGNVLEEQPQPSTLPPTST* [D.rer p53 P2 full, expressed whole TAD region of D. rerio p53] ; Kd observed: 49 nM

---

Target: MDM2D.rerio SWIB domain (Danio rerio, UniProt O42354)
Construct: NusA-TEV-His6-PreScission (N, cleaved yes); made in house; host or cells: Escherichia coli BL21 (DE3)
Sequence (O42354 with tags, fused parts or gaps): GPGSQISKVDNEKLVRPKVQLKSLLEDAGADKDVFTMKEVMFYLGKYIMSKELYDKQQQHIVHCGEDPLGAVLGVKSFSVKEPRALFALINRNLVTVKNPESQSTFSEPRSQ
Test: Fluorescence polarization displacement assay
Assay type: binding
Details: read-out: Ki [µM] Average
Readout Name: Ki (µM)
Record the value in µM, omitting the unit from your answer.

Reported MDM2D.rerio SWIB domain (Danio rerio, UniProt O42354) Ki for item GPMGMAQNDSQEFAELWEKNLISIQPPGGGSCWDIINDEEYLPGSFDPNFFGNVLEEQPQPSTLPPTST* [D.rer p53 P2 full, expressed whole TAD region of D. rerio p53] was 0.049

---

Target: MDM2 SWIB domain, Lepisosteus oculatus
Sequence (as listed by the source): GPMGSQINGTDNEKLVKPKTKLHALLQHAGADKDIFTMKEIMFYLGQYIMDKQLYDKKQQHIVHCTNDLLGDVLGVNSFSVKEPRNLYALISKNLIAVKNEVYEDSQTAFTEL
Test: Fluorescence polarization displacement assay
Type: binding
Conditions: mean of the replicates (n = 3 or 6); read-out: Ki [nM] Average
Readout Name: Ki (nM)
Numbers only; they are read as nM.

// Ki (MDM2 SWIB domain, Lepisosteus oculatus) for GPMGMADPEPEGLPLSQESFQELWNMVIVLHRAVPPENAQWPDLQSMLYTNELVPNAIDSLYEELEPHVSMPPQPMVSNPDGLAPSSST [L.ocu p53 full, expressed full-length spotted gar p53TAD] = 84.7

---

Biological target: MDM2H.sapiens SWIB domain (Homo sapiens, UniProt Q00987)
Construct: NusA-TEV-His6-PreScission (N, cleaved yes); made in house; host or cells: Escherichia coli BL21 (DE3)
Sequence (Q00987 with tags, fused parts or gaps): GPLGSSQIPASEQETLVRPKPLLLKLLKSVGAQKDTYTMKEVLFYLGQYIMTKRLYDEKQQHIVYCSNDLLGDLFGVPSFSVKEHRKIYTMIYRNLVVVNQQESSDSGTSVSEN
Test: Fluorescence polarization displacement assay
Format: binding
Where no end group is shown, it is not given here.
Readout Name: Ki

Reference set, count: 3
Ac-SQDSFRELWESVV [C.arg p53 P1 short] : 1080 nM
Ac-SQESFEDLWKMNL [O.kis p53 P2 short] : 787 nM
Ac-SQGTFDEIWASNF [C.har p53 P1 short] : 1250 nM

Here is another substance to look at.
What the record says about Ac-SQDETFQALWNTVT [A.ang p53 P2 short] : Ki is 767 nM
